assay: Half life in BCRP knockout Sprague-Dawley rat at 5 mg/kg, iv by LC-MS/MS analysis; type: ADME, organism-based; set-up: dose 5 mg/kg, route intravenous; settings: in vivo
Measured parameter: half-life

Asked: Given `O=C(O)c1cc(/N=N/c2ccc(S(=O)(=O)Nc3ccccn3)cc2)ccc1O` , state its recorded half-life.
Given back: 1.4 h

* * *

experiment: Tmax in MRP2 knockout Sprague-Dawley rat at 5 mg/kg, po by LC-MS/MS analysis; type: ADME, organism-based; design: dose 5 mg/kg, route oral; conditions: in vivo
Measured parameter: Tmax (min)
Your answer should be a plain number; it is taken to be in min.

Asked: Given CC(=O)O[C@H]1C(=O)[C@@]2(C)[C@H]([C@H](OC(=O)c3ccccc3)[C@]3(O)C[C@H](OC(=O)[C@H](O)[C@@H](NC(=O)c4ccccc4)c4ccccc4)C(C)=C1C3(C)C)[C@]1(OC(C)=O)CO[C@@H]1C[C@@H]2O [PACLITAXEL] , state its recorded Tmax.
Given back: 54
